Just for reference, ChEMBL document CHEMBL3988442 is where these values come from.

# Assayed System: Chromo domain-containing protein 1 (Saccharomyces cerevisiae (strain ATCC 204508 / S288c) (Baker's yeast))
# Test Details: ScCHD-1 Enzyme Inhibition Assay; also: in the data most compounds retested in dose-response had high values
# Type: functional
# Set-up: scale not given: direction of the effect not stated beside the values
# Details: 30 µM
Measured Attribute: Percent Effect (%)
One number for each entry, in %.

Use these answered entries as a reference point.
Compound	Reading Unit	Reading
CCc1nccn1C1CCCN(C(=O)CCCNc2ncccn2)C1 (configuration not stated)	%	-14.2
CCN(CC1CCOC1)C(=O)c1cccnc1N1CCOCC1 (configuration not stated)	%	2.96
Cn1cnc(S(=O)(=O)NCCCN2CCCCCC2)c1Cl	%	-6.58
COCC1c2c(cnn2CC2CC2)CCN1Cc1nccs1 (configuration not stated)	%	-6.08
CCOCCC(=O)N1CCCC(c2ncc[nH]2)C1 (configuration not stated)	%	-0.879

For every item in the list below, what is its measured Percent Effect?
1. Cc1nnc2n1CCN(C(=O)c1cc(Cl)c[nH]1)C2
2. O=C(NCC(O)c1ccc(F)c(F)c1)c1cccnc1O (configuration not stated)

[3.54, -4.53]

----------
# Assayed System: Chromo domain-containing protein 1 (Saccharomyces cerevisiae (strain ATCC 204508 / S288c) (Baker's yeast)) (UniProt P32657)
# Sequence (P32657 whole entry, the tested form may be a part): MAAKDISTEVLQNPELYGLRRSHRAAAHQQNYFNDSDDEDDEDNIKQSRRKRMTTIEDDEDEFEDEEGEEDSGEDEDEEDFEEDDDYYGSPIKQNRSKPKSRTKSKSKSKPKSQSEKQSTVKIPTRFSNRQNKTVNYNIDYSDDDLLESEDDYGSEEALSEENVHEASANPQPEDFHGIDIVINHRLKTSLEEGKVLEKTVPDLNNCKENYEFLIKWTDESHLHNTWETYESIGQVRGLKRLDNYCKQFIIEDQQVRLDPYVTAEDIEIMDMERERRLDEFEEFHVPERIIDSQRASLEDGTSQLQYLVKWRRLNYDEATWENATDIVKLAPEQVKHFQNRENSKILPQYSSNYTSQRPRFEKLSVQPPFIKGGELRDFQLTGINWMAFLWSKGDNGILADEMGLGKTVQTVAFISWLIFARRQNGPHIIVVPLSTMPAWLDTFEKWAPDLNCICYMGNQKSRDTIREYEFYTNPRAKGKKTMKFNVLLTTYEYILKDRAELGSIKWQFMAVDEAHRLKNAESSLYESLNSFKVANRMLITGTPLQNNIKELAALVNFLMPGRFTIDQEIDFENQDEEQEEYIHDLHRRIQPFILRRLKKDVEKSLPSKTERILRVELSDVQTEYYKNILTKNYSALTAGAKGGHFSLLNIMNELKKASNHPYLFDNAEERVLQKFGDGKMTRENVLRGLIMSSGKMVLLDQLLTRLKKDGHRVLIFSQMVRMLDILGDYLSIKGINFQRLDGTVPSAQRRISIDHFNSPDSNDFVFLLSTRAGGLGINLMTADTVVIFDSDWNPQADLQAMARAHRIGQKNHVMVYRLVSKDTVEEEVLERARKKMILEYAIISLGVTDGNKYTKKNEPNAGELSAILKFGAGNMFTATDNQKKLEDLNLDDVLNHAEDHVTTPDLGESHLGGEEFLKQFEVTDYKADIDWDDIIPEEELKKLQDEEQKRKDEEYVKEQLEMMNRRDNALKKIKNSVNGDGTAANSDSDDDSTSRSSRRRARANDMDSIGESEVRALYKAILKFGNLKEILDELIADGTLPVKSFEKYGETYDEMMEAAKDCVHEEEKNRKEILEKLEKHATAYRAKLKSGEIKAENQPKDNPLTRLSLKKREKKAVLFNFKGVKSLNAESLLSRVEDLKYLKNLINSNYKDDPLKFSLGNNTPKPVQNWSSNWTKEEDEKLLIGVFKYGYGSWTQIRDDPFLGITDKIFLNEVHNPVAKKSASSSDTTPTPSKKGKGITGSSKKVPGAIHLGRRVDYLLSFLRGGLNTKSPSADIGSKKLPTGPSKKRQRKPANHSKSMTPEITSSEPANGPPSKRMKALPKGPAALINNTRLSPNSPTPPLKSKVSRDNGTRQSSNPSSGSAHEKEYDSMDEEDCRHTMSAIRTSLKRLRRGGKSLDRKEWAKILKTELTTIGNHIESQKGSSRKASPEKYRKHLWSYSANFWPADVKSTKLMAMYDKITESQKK
# Test Details: ScCHD-1 Enzyme Inhibition Assay; also: in the data most compounds retested in dose-response had high values
# Assay type: functional
# Design: scale not given: direction of the effect not stated beside the values
# Details: 30 µM
Measured Attribute: Percent Effect (%)
Numbers only, in %.

Compound	Percent Effect, %
O=C(c1ccc[nH]1)N1CCn2cc(CN3CCCC3)nc2C1	-0.931

For every item in the list below, what is its measured Percent Effect?
1. CNc1cc(N2CCCC2CNCc2c[nH]nc2C(C)(C)C)ncn1 (stereo not drawn)
2. O=C(NCCCn1cccn1)C1(c2ccc(F)cc2)CC1
3. O=C1CC2(CCN(CCO)CC2)CN1Cc1cc(F)cc(F)c1
4. O=C(CN1CCC(N2CCNC2=O)CC1)NCC(F)(F)F
5. CCc1cnc(CN(C)C2CCN(CCS(C)(=O)=O)C2)o1 (stereo not drawn)
6. O=C1CC(c2ccncc2)c2c(c(C(=O)O)cn2-c2ccc(F)cc2)N1 (stereo not drawn)
7. CC(=O)N1CCC[C@H]1C(=O)NCCOc1cccc(Cl)c1

1: 0.0939; 2: -4.26; 3: -9.52; 4: -4.76; 5: 0.436; 6: -5.97; 7: -9.94

----------
Field: Percent Effect. Provide a value for each of the molecules that follow.
# Assayed System: Tyrosyl-tRNA synthetase, putative (Trypanosoma cruzi (strain CL Brener))
# Sequence (whole entry): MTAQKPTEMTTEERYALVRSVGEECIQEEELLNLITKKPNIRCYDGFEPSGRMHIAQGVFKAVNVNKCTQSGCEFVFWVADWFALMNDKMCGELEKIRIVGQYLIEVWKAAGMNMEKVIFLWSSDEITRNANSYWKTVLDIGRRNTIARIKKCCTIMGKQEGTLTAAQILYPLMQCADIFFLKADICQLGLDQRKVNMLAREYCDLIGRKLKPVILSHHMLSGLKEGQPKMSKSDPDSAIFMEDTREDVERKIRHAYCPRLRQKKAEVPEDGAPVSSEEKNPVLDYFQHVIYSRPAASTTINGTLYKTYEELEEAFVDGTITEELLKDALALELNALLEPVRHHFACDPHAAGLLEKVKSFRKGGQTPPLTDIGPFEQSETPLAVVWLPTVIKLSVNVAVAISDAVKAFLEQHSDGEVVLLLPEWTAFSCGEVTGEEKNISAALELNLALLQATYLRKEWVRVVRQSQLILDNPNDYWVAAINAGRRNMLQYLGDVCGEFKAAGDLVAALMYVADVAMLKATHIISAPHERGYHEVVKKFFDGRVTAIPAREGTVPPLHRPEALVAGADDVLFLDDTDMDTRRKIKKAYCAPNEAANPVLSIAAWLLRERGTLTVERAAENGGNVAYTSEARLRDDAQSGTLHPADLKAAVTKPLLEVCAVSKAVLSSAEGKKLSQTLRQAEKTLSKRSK
# Test Details: Trypanosoma cruzi tyrosyl tRNA synthetase (TcYRS) SOP
# Assay type: functional
# Design: scale not given: direction of the effect not stated beside the values
# Details: 30 µM
One number for each entry, in %.

Molecule	Reading
Cc1[nH]ccc1C(=O)Nc1cccc(CN2CCC(O)CC2)c1	10.4
Cc1nc(C)n(CC2CN(Cc3cccnc3)CCO2)n1 (stereo not drawn)	23.5

We next turn to a different molecule, shown below.
Need Percent Effect, item CC(C)OCCCNC(=O)CN1CCC(N2CCN(C)C2=O)CC1
8.86
